Biological target: panel of 203 kinases (Homo sapiens, UniProt Q8IVH8)
Construct: purchased DiscoverX (KINOMEscan)
Sequence (Q8IVH8 1-894): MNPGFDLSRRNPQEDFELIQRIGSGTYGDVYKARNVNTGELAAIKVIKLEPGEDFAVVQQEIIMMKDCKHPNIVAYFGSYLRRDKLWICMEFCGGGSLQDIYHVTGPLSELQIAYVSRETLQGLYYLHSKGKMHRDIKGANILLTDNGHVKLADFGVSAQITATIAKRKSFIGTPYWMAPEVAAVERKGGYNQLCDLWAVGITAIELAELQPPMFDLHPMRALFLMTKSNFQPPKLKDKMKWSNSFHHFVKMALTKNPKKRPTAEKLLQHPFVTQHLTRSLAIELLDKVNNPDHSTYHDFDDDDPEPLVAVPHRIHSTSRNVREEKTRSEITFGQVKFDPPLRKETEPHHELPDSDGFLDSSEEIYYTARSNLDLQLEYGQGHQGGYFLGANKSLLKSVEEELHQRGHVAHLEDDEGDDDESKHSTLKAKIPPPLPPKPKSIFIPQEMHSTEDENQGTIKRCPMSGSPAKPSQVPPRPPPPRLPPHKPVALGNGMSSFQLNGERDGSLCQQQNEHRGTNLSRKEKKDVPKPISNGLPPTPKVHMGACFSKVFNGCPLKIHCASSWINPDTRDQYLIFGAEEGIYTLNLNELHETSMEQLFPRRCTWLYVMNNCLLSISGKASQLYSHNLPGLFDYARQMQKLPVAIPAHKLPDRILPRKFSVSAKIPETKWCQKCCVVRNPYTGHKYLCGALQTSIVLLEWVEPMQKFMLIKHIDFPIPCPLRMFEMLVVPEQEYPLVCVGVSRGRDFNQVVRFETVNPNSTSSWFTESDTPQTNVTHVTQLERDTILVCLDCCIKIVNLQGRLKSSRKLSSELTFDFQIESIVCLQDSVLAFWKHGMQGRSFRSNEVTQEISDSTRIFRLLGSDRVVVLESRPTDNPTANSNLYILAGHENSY
Assay: KINOMEscan competitive binding, whole panel
Settings: 10 µM, n=1; kinase MAP4K3; read-out: Percent inhibition MAP4K3
readout_type: inhibition at 10 µM (%)
Could you give me the number in %? Just the number is fine.

Check out these entries, answers already filled in.
COc1cc(Nc2nccc(-c3sc(N)nc3-c3cccc(NC(=O)c4c(F)cccc4F)c3)n2)cc(OC)c1OC : 99.7
C[C@@H](Oc1cc(-c2cnc3ccccn23)sc1C(N)=O)c1ccccc1Cl : 0

Query: Could you please provide reported inhibition at 10 µM for Cc1ccc(O)cc1N(C)c1ccnc(Nc2cccc(S(N)(=O)=O)c2)n1 ? Thanks!
Response: 98.5

Query: Could you please provide reported inhibition at 10 µM for CN1CCN(c2ccc(Nc3nccc(-c4cnn5ncccc45)n3)cc2C#N)CC1 ? Thanks!
Response: 97
